Experiment: self-splicing fitness, log relative to wild type (ln ratio); higher = more splicing; Tetrahymena group I intron in knt gene, E. coli kanamycin selection, DiMSum; sequences stand for … in CUCUCU…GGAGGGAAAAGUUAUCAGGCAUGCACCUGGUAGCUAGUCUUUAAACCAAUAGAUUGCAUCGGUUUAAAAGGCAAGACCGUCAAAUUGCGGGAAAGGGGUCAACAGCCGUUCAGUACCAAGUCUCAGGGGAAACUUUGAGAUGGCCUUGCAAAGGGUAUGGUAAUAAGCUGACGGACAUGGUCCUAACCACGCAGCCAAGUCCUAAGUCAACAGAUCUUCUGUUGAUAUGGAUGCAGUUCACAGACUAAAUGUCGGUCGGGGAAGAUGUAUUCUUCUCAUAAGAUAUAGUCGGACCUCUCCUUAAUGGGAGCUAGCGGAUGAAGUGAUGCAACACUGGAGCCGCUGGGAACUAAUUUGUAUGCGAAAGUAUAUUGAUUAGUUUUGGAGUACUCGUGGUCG;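 further: selection with 25 µg/mL kanamycin versus none on LB agar overnight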
Conditions: 37 °C
Each entry below lists one item and its recorded self-splicing fitness (ln) value.

{"columns": ["query.sequence", "self-splicing fitness (ln)"],
 "data": [
  ["UGAUAGCAAUAUUACGGCAA", -0.418],
  ["CAUCAGCAAUAUUACGUUUA", -1.36],
  ["AAAUAGCAAUAUUACGUCUU", 0.263],
  ["UUCAAGCAAUAUUACGUAUU", -2.66],
  ["GUCCAGCAAUAUUACGAGCC", -0.519],
  ["UAGCAGCAAUAUUACGGGGU", -2.99],
  ["CCACAGCAAUAUUACGACGG", -1.63],
  ["ACCGAGCAAUAUUACGCUUU", -1.56],
  ["CGCCAGCAAUAUUACGGCCG", -0.755],
  ["GUCCAGCAAUAUUACGCUAC", -2.96],
  ["GGGUAGCAAUAUUACGGGAC", -0.633],
  ["GAACAGCAAUAUUACGAUUA", -0.296],
  ["UCUGAGCAAUAUUACGGUAG", -1.67],
  ["GCUUAGCAAUAUUACGAGGC", -1.93],
  ["GCGCAGCAAUAUUACGCUGC", -3.59],
  ["CCGGAGCAAUAUUACGGAUA", -1.18],
  ["ACAUAGCAAUAUUACGGACU", 0.36],
  ["UUAGAGCAAUAUUACGUAUG", -1.31],
  ["AAUCAGCAAUAUUACGGAUC", 0.17],
  ["AGCGAGCAAUAUUACGGUGU", -2.37],
  ["CAUAAGCAAUAUUACGGUUU", -2.69],
  ["UAGAAGCAAUAUUACGGUAU", -2.55],
  ["ACUCAGCAAUAUUACGGAUG", -0.69],
  ["UUACAGCAAUAUUACGACGU", -3.23],
  ["CACUAGCAAUAUUACGUGAU", -3.21],
  ["GGAAAGCAAUAUUACGUCCU", -1.14],
  ["AACUAGCAAUAUUACGGAUA", -1.2],
  ["CAAAAGCAAUAUUACGAAUC", -2.71],
  ["UCGGAGCAAUAUUACGUGUC", -2.26],
  ["GUAUAGCAAUAUUACGAGUA", -1.77],
  ["AUGAAGCAAUAUUACGUACU", 0.581],
  ["UGGGAGCAAUAUUACGAGGA", -3.9],
  ["GCGGAGCAAUAUUACGCUCA", -0.54],
  ["AAUAAGCAAUAUUACGAAUU", -1.58]
]}

###

Experiment: self-splicing fitness, log relative to wild type (ln ratio); higher = more splicing; Tetrahymena group I intron in knt gene, E. coli kanamycin selection, DiMSum; sequences stand for … in CUCUCU…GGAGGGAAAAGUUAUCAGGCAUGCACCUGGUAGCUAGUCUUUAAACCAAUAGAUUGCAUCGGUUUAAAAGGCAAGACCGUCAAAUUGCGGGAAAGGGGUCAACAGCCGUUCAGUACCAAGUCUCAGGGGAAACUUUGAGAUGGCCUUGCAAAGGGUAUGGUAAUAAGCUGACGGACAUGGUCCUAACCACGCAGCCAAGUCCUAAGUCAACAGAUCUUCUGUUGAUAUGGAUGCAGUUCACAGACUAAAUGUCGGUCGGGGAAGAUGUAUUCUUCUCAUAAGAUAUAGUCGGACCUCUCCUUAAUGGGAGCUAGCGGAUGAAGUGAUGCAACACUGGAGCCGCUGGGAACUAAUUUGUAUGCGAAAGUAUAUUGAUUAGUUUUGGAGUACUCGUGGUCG
Settings: 37 °C
Entries are sorted into classes by self-splicing fitness (ln) as follows: bin 1 = under -2, bin 2 = from -2 up to -0.9, bin 3 = -0.9 and over

{"columns": ["query.sequence", "group.label"],
 "data": [
  ["ACUUAGCAAUAUUACGCUUG", "bin 3"],
  ["UGUGAGCAAUAUUACGAUCU", "bin 3"],
  ["UGCGAGCAAUAUUACGGAUU", "bin 1"],
  ["AAUUAGCAAUAUUACGUCCG", "bin 3"],
  ["UGCCAGCAAUAUUACGGCCU", "bin 3"],
  ["ACUAAGCAAUAUUACGCCAG", "bin 3"],
  ["UGUUAGCAAUAUUACGUGUU", "bin 1"],
  ["UCCUAGCAAUAUUACGACUA", "bin 1"],
  ["ACCUAGCAAUAUUACGUGCG", "bin 3"],
  ["CCUGAGCAAUAUUACGAGUA", "bin 1"],
  ["UAUAAGCAAUAUUACGAGGC", "bin 1"],
  ["CGCAAGCAAUAUUACGUAAA", "bin 1"],
  ["GGAAAGCAAUAUUACGGCAC", "bin 3"],
  ["GUCAAGCAAUAUUACGGAAG", "bin 2"],
  ["CUCGAGCAAUAUUACGGUUA", "bin 2"],
  ["CUGCAGCAAUAUUACGUUUA", "bin 2"],
  ["UCUAAGCAAUAUUACGCUGC", "bin 1"],
  ["ACUGAGCAAUAUUACGUUAG", "bin 3"],
  ["UCGGAGCAAUAUUACGAUGG", "bin 1"],
  ["CAGCAGCAAUAUUACGGAUA", "bin 1"],
  ["UUAGAGCAAUAUUACGGAGG", "bin 2"],
  ["AUGCAGCAAUAUUACGCCGU", "bin 3"],
  ["CUUAAGCAAUAUUACGGAUG", "bin 3"],
  ["UGCUAGCAAUAUUACGUAGG", "bin 3"],
  ["GACGAGCAAUAUUACGGUAA", "bin 1"],
  ["CCUGAGCAAUAUUACGGGAG", "bin 1"],
  ["ACUGAGCAAUAUUACGGCCC", "bin 2"],
  ["UAUCAGCAAUAUUACGUUAC", "bin 1"],
  ["GCGCAGCAAUAUUACGUUCA", "bin 3"],
  ["AACAAGCAAUAUUACGUUGU", "bin 1"],
  ["GGCUAGCAAUAUUACGACUU", "bin 3"],
  ["GAUUAGCAAUAUUACGUUUA", "bin 2"],
  ["UCCCAGCAAUAUUACGGGAC", "bin 1"],
  ["CCACAGCAAUAUUACGCCAC", "bin 1"]
]}

###

Each entry below lists one item and its recorded self-splicing fitness (ln) value.
Assay: self-splicing fitness, log relative to wild type (ln ratio); higher = more splicing; Tetrahymena group I intron in knt gene, E. coli kanamycin selection, DiMSum; sequences stand for … in CUCUCU…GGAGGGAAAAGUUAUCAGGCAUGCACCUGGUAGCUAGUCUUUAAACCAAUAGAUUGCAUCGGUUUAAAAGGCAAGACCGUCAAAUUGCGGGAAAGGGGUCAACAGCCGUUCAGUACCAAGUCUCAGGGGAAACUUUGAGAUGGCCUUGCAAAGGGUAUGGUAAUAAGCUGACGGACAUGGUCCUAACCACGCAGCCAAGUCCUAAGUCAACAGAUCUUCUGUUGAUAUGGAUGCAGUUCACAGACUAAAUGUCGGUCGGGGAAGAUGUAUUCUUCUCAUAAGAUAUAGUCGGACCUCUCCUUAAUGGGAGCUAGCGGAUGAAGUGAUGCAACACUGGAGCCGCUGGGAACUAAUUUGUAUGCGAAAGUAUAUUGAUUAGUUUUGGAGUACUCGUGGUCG
Conditions: 37 °C

{"columns": ["query.sequence", "self-splicing fitness (ln)"],
 "data": [
  ["CGUGAGCAAUAUUACGAUCG", 0.475],
  ["GAUAAGCAAUAUUACGAGUC", -1.32],
  ["CACCAGCAAUAUUACGCGAU", -2.61],
  ["UAAUAGCAAUAUUACGGUGG", -1.12],
  ["AUUGAGCAAUAUUACGCGCA", -1.08],
  ["AAGAAGCAAUAUUACGAGAA", -1.87],
  ["CUGUAGCAAUAUUACGUAUC", -1.57],
  ["CUACAGCAAUAUUACGGGAA", -2.28]
]}
